# System name: PLK1 kinase (Homo sapiens)
# Construct: purchased Carnabio (Carna Biosciences) 05-157
# Sequence (P53350 whole entry): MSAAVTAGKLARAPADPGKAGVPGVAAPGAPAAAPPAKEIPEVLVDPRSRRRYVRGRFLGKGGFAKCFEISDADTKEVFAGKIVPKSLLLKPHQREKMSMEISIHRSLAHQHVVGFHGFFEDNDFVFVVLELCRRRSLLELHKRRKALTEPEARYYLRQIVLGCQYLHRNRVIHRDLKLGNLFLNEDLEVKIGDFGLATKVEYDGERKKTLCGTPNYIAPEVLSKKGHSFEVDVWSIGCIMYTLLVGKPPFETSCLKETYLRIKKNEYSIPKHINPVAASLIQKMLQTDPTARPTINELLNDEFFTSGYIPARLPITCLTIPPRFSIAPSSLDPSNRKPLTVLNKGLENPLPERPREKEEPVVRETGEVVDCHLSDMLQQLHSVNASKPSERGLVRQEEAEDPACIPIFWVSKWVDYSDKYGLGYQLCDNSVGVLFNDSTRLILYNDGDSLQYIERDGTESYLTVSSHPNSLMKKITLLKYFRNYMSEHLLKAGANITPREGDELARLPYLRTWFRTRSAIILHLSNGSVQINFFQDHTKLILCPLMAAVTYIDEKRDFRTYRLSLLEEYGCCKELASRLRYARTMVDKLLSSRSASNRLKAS
# Protocol details: Inhibitory activity on PLK1 kinase
# Type: biochemical
# Cond: maximum effect caused by the compound at the test concentration

{"Compound": "CN1CCN(c2ccc(OC(F)(F)F)c(Nc3ncc4c(n3)-c3c(c(C(N)=O)nn3CCO)CC4)c2)CC1 [Onvansertib, reference compound]", "System name": "PLK1 kinase (Homo sapiens)", "Imax": "100.02%"}
{"Compound": "CN1CCN(c2ccc(OC(F)(F)F)c(Nc3ncc4c(n3)-c3c(c(C(=O)NN)nn3CCO)CC4)c2)CC1", "System name": "PLK1 kinase (Homo sapiens)", "Imax": "99.41%"}
{"Compound": "CN1C2CCC1CN(c1ccc(OC(F)(F)F)c(Nc3ncc4c(n3)-c3c(c(C(N)=O)nn3CCO)CC4)c1)C2", "System name": "PLK1 kinase (Homo sapiens)", "Imax": "98.18%"}
{"Compound": "CN1CCN(c2ccc(OC(F)(F)F)c(Nc3ncc4c(n3)-c3c(c(C(N)=O)nn3CCO)N(C)C4)c2)CC1", "System name": "PLK1 kinase (Homo sapiens)", "Imax": "76.81%"}
